Target: pooled human IgG (human IgG1,2,3 and 4)
result type: Enzyme Activity Endpoint Assay: Fab′2 (ng/µL)
Answers are plain numbers, in ng/µL.

I would be grateful if you could share the reported Enzyme Activity Endpoint Assay: Fab′2 for PRT-268 (protein) MVTSVWTKGVTPPTDFIYGEDVLHAPYKAGQGWYDITKLFNGKDDLLCGAATAGNMLHWWFDQNKEQIENYLKKHPEKQKINFNGEQMFDVKEAIDTKDSQLDSKLFDYFKEKAFPNLSTKHLGVFPDHVIDMFINGYRLSLLNHGPTPVKRGSKDPRGGIFDAVFTRGDQSKLLTNRHDLKNKTLKEISDLIKQELTEGKALGISHTYANGRINHVINLWGADFDAEGNLEAIYVTDSDSNPSIGMKKYFVGVNSSGKVAISAKEIEEDNIGAQVLGLFTLSTGQDIWNQTN .
429
